# MEASURED_ON: T1, AFP158/HLA-A*02:01 complex (human)
# T1 construct: flowed over the chip in SPR; also called AFP158 pro
# TEST_DESCRIPTION: SPR, scFv captured, pMHC in flow;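 further: complex injected at several concentrations over crude scFv, association then running-buffer dissociation, KD estimated from kinetic on- and off-rate constants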
MEASUREMENT_LABEL: pKd
# pKd: negative log10 of molar concentration; output just the value

In the examples that follow, each entry is paired with its recorded pKd.
HP110S (scFv, AS170036 VL1VH1 scFv mutein) scFv: QSALTQPRSVSGSPGQSVTISCAGTSSDVGSENYVSWYQQHPGKAPKLMIYQVNKRASGVPDRFSGSKSGNTASLTISGLQAEDEADYYCASYRSSDHNIVFGGGTKLTVLGGGGSGGGGSGGGGSEVQLVESGGGLVQPGGSLRLSCAASGFTFSSYAMSWVRQAPGKGLEWVSTINSGTGSPYYADSVKGRFTISRDNSKNTLYLQMNSLRAEDTAVYYCAKNFFDGSWFLGPSAMDYWGQGTLVTVSSHHHHHH    6.52
HP58Q (scFv, AS170036 VL1VH1 scFv mutein) scFv: QSALTQPRSVSGSPGQSVTISCAGTSSDVGSENYVSWYQQHPGKAPKLMIYQVNKRASGVPDRFSGSKSGNTASLTISGLQAEDEADYYCASYRSSDHNIVFGGGTKLTVLGGGGSGGGGSGGGGSEVQLVESGGGLVQPGGSLRLSCAASGFTFSSYAMSWVRQAPGKGLEWVSTINSGTGSQYYADSVKGRFTISRDNSKNTLYLQMNSLRAEDTAVYYCAKNFFDGSWFLGPPAMDYWGQGTLVTVSSHHHHHH    6.30

// pKd value for HG56L (scFv, AS170036 VL1VH1 scFv mutein) scFv: QSALTQPRSVSGSPGQSVTISCAGTSSDVGSENYVSWYQQHPGKAPKLMIYQVNKRASGVPDRFSGSKSGNTASLTISGLQAEDEADYYCASYRSSDHNIVFGGGTKLTVLGGGGSGGGGSGGGGSEVQLVESGGGLVQPGGSLRLSCAASGFTFSSYAMSWVRQAPGKGLEWVSTINSGTLSPYYADSVKGRFTISRDNSKNTLYLQMNSLRAEDTAVYYCAKNFFDGSWFLGPPAMDYWGQGTLVTVSSHHHHHH : 6.54
